# Procedure summary: NCI Yeast Anticancer Drug Screen. Data for the cln2 rad14 strain (AID 165)
# Particulars: S. cerevisiae cln2 rad14 strain, at 50.0 µM
The panel holds about 79,000 compounds, 15% with a hit somewhere; the sample as a whole holds those more often. Active and inactive are the calls of the source. Rule as the data show it: active = growth inhibition above about 70%; inactive = the rest.
Possible outcomes: active, inactive

1) Cc1nc([N+](=O)[O-])cn1/C=C/Cn1cc([N+](=O)[O-])nc1C = inactive
2) O=S(=O)(Oc1cccc2ccccc12)c1ccccc1 = inactive
3) COc1cc2c(SCCN(C)C)nc3ccccc3c2c2ccccc12 = active
4) CCC[CH2][Ge]([CH2]CCC)([CH2]CCC)[n]1ccc2ccccc21 = inactive
5) c1cc(-c2cn3c(n2)SCC3)ccn1 = inactive
6) Oc1ccccc1-c1nnc2n1N=C(c1ccc(-c3ccccc3)cc1)CS2 = inactive
